Data origin: patent US20130085146A1

Assay: Indinavir accumulation in lymph nodes after oral free indinavir
Format: in vivo, macaques
Conditions: macaque, inguinal lymph node; oral 25 mg/kg in solution; animal 94096; inguinal; 3.75 hr
ENDPOINT: concentration at 3.75 hr (ng/mL)

CC(C)(C)NC(=O)[C@@H]1CN(Cc2cccnc2)CCN1C[C@@H](O)C[C@@H](Cc1ccccc1)C(=O)N[C@H]1c2ccccc2C[C@H]1O [Indinavir] : 0.481

* * *

Assay: Indinavir accumulation in lymph nodes after oral free indinavir
Format: in vivo, macaques
Conditions: macaque, inguinal lymph node / plasma; oral 25 mg/kg; animal 94096; inguinal; 3.75 hr; read-out: Lymph node to plasma ratio
ENDPOINT: Kp at 3.75 hr

CC(C)(C)NC(=O)[C@@H]1CN(Cc2cccnc2)CCN1C[C@@H](O)C[C@@H](Cc1ccccc1)C(=O)N[C@H]1c2ccccc2C[C@H]1O [Indinavir] : 0.01

* * *

Assay: Indinavir accumulation in lymph nodes after oral free indinavir
Format: in vivo, macaques
Settings: macaque, axillary lymph node / plasma; oral 25 mg/kg; animal 94094; axillary; 2 hr; read-out: Lymph node to plasma ratio
ENDPOINT: Kp at 2 hr

CC(C)(C)NC(=O)[C@@H]1CN(Cc2cccnc2)CCN1C[C@@H](O)C[C@@H](Cc1ccccc1)C(=O)N[C@H]1c2ccccc2C[C@H]1O : 0.02
